Biological target: T1, recombinant human KAAG1 (Kidney associated antigen 1) (human, UniProt Q9UBP8 1-84)
T1 construct: also called KAAG1 protein
T1 sequence: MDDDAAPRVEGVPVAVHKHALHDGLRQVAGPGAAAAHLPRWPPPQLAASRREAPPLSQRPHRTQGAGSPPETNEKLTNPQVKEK
Assay: SPR (BioRad ProteOn XPR36): antibody captured on an anti-human IgG Fc surface, KAAG1 injected as analyte, 1:1 Langmuir fit
koff values by entry
The figure you give is taken to be in s⁻¹; do not add the unit.

Ask: Which koff reading was recorded for the binder humanized 3A4 antibody Lh1Hh2 (antibody, human IgG1, kappa, V domains shown, Human IgG1/kappa) VH: QIQLVQSGAEVKKPGASVKVSCKASGYTFTDDYMSWVRQAPGQGLEWMGDINPYNGDTNYNQKFKGRVTITADKSTSTAYMELSSLRSEDTAVYYCARDPGAMDYWGQGTLVTVSS VL: DIVMTQTPLSLPVTPGEPASISCRSSQSLLHSNGNTYLEWYLQKPGQSPQLLIYTVSNRFSGVPDRFSGSGSGTDFTLKISRVEAEDVGVYYCFQGSHVPLTFGQGTKLEIKR ?
Reply: 0.00119

Ask: Which koff reading was recorded for the binder humanized 3A4 antibody Lh1Hh3 (antibody, human IgG1, kappa, V domains shown, Human IgG1/kappa) VH: QIQLVQSGAEVKKPGASVKVSCKASGYTFTDDYMSWVRQAPGQGLEWIGDINPYNGDTNYNQKFKGRATLTVDKSTSTAYMELSSLRSEDTAVYYCARDPGAMDYWGQGTLVTVSS VL: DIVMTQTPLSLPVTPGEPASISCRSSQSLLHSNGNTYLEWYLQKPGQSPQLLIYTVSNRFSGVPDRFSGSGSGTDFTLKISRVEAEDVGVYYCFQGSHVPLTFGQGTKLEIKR ?
Reply: 0.00096

Ask: Which koff reading was recorded for the binder humanized 3A4 antibody Lh1Hh4 (antibody, human IgG1, kappa, V domains shown, Human IgG1/kappa) VH: QIQLVQSGAEVKKPGASVKVSCKASGYTFTDDYMSWVKQAPGQGLEWIGDINPYNGDTNYNQKFKGKATLTVDKSTSTAYMELSSLRSEDTAVYYCARDPGAMDYWGQGTLVTVSS VL: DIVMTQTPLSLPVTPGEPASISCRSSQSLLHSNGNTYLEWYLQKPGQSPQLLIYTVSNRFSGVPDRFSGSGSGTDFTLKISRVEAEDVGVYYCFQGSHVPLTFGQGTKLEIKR ?
Reply: 0.000764

Cited source: patent US20190119366A1
